Test system: Caco2 cell monolayer
Test: Glucose absorption assay (transport across Caco2 monolayer in transwell, 14C-glucose)
Assay type: cell-based, human
Conditions: compound 0.01 μM, 2 days pretreatment, 25 mM glucose
endpoint.name: Transport rate (glucose) (nmol/min)
State just the number; it will be interpreted in nmol/min.

In the examples that follow, each entry is paired with its recorded Transport rate (glucose).
CC(C)=CCC[C@](C)(O)C1CC[C@]2(C)C1C(O)CC1[C@@]3(C)CCC(O)C(C)(C)C3C(OC3OC(CO)C(O)C(O)C3O)C[C@]12C (some centres unmarked) [Rh1, ginsenoside Rh1]
1.3568
CC(C)=CCC[C@](C)(O[C@@H]1O[C@H](CO)[C@@H](O)[C@H](O)[C@H]1O)[C@H]1CC[C@]2(C)[C@@H]1[C@H](O)C[C@@H]1[C@@]3(C)CC[C@H](O)C(C)(C)[C@@H]3[C@@H](O[C@@H]3O[C@H](CO)[C@@H](O)[C@H](O)[C@H]3O)C[C@]12C [Rg1, ginsenoside Rg1]
1.1317
CC(C)=CCC[C@](C)(O)[C@H]1CC[C@]2(C)[C@@H]1[C@H](O)C[C@@H]1[C@@]3(C)CC[C@H](O)C(C)(C)[C@@H]3[C@@H](O)C[C@]12C [Rga, 20(S)-protopanaxatriol]
2.5454

Problem: Item under review: CC(C)=CCC[C@](C)(O[C@@H]1O[C@H](CO[C@@H]2O[C@H](CO)[C@@H](O)[C@H](O)[C@H]2O)[C@@H](O)[C@H](O)[C@H]1O)[C@H]1CC[C@]2(C)[C@@H]1[C@H](O)C[C@@H]1[C@@]3(C)CC[C@H](O[C@@H]4O[C@H](CO)[C@@H](O)[C@H](O)[C@H]4O[C@@H]4O[C@H](CO)[C@@H](O)[C@H](O)[C@H]4O)C(C)(C)[C@@H]3CC[C@]12C [Rb1, ginsenoside Rb1] . Reported Transport rate (glucose)?
Solution: 2.2306

Problem: # lookup: Transport rate (glucose) of CC(C)=CCC[C@](C)(O[C@@H]1O[C@H](CO)[C@@H](O)[C@H](O)[C@H]1O)[C@H]1CC[C@]2(C)[C@@H]1[C@H](O)C[C@@H]1[C@@]3(C)CC[C@H](O)C(C)(C)[C@@H]3[C@@H](O)C[C@]12C [GF1, ginsenoside F1]
Solution: 3.0783

###

Test system: Caco-2 cell monolayer
Assay: Arginine absorption assay (transport across Caco-2 monolayer, 3H-arginine)
Type: cell-based, human
Details: compound 0.1 μM, 10 mM L-arginine
Transport rate (arginine) overview
The answer is to be given in nmol/min; state only the numeric part.

Problem: Any idea what its Transport rate (arginine) is? The molecule is CC(C)=CCC[C@](C)(O[C@@H]1O[C@H](CO[C@@H]2O[C@H](CO)[C@@H](O)[C@H](O)[C@H]2O)[C@@H](O)[C@H](O)[C@H]1O)[C@H]1CC[C@]2(C)[C@@H]1[C@H](O)C[C@@H]1[C@@]3(C)CC[C@H](O[C@@H]4O[C@H](CO)[C@@H](O)[C@H](O)[C@H]4O[C@@H]4O[C@H](CO)[C@@H](O)[C@H](O)[C@H]4O)C(C)(C)[C@@H]3CC[C@]12C [Rb1, ginsenoside Rb1]
Solution: 11.8699

Problem: Given the molecule CC(C)=CCC[C@](C)(O[C@@H]1O[C@H](CO)[C@@H](O)[C@H](O)[C@H]1O)[C@H]1CC[C@]2(C)[C@@H]1[C@H](O)C[C@@H]1[C@@]3(C)CC[C@H](O)C(C)(C)[C@@H]3[C@@H](O[C@@H]3O[C@H](CO)[C@@H](O)[C@H](O)[C@H]3O)C[C@]12C [Rg1, ginsenoside Rg1] , what is its reported Transport rate (arginine)?
Solution: 22.5370

Problem: Entry CC(C)=CCC[C@](C)(O[C@@H]1O[C@H](CO)[C@@H](O)[C@H](O)[C@H]1O)[C@H]1CC[C@]2(C)[C@@H]1[C@H](O)C[C@@H]1[C@@]3(C)CC[C@H](O)C(C)(C)[C@@H]3[C@@H](O)C[C@]12C [GF1, ginsenoside F1] : reported Transport rate (arginine) = ?
Solution: 12.6865

Problem: What value of Transport rate (arginine) has been reported for the following molecule? CC(C)=CCC[C@](C)(O)[C@H]1CC[C@]2(C)[C@@H]1[C@H](O)C[C@@H]1[C@@]3(C)CC[C@H](O)C(C)(C)[C@@H]3[C@@H](O)C[C@]12C [Rga, 20(S)-protopanaxatriol]
Solution: 10.7555

Problem: Report Transport rate (arginine) for CC(C)=CCC[C@](C)(O)C1CC[C@]2(C)C1C(O)CC1[C@@]3(C)CCC(O)C(C)(C)C3C(OC3OC(CO)C(O)C(O)C3O)C[C@]12C (some centres unmarked) [Rh1, ginsenoside Rh1] please.
Solution: 11.6615

###

Tested on: Caco2 cell monolayer
Assay: Glucose absorption assay (transport across Caco2 monolayer in transwell, 14C-glucose)
Format: cell-based, human
Conditions: compound 0.01 μM
# Percentage (glucose transport, control = 100) values compiled below
Supply the numeric figure in %, leaving out any unit text.

CC(C)=CCC[C@](C)(O[C@@H]1O[C@H](CO[C@@H]2O[C@H](CO)[C@@H](O)[C@H](O)[C@H]2O)[C@@H](O)[C@H](O)[C@H]1O)[C@H]1CC[C@]2(C)[C@@H]1[C@H](O)C[C@@H]1[C@@]3(C)CC[C@H](O[C@@H]4O[C@H](CO)[C@@H](O)[C@H](O)[C@H]4O[C@@H]4O[C@H](CO)[C@@H](O)[C@H](O)[C@H]4O)C(C)(C)[C@@H]3CC[C@]12C [Rb1, ginsenoside Rb1]
102.26

Problem: Which Percentage (glucose transport, control = 100) reading was recorded for the molecule CC(C)=CCC[C@](C)(O)[C@H]1CC[C@]2(C)[C@@H]1[C@H](O)C[C@@H]1[C@@]3(C)CC[C@H](O)C(C)(C)[C@@H]3[C@@H](O)C[C@]12C [Rga, 20(S)-protopanaxatriol] ?
Solution: 116.69

###

Tested on: Caco2 cell monolayer
Assay: Glucose absorption assay (transport across Caco2 monolayer in transwell, 14C-glucose)
Assay type: cell-based, human
Details: compound 0.01 μM
Form field: Percentage (glucose transport, control = 100) (one value per entry).
Use % as the unit, but write only the number.

Problem: Recorded Percentage (glucose transport, control = 100) of CC(C)=CCC[C@](C)(O[C@@H]1O[C@H](CO)[C@@H](O)[C@H](O)[C@H]1O)[C@H]1CC[C@]2(C)[C@@H]1[C@H](O)C[C@@H]1[C@@]3(C)CC[C@H](O)C(C)(C)[C@@H]3[C@@H](O)C[C@]12C [GF1, ginsenoside F1] , please.
Solution: 141.12

Problem: # input compound: CC(C)=CCC[C@](C)(O)C1CC[C@]2(C)C1C(O)CC1[C@@]3(C)CCC(O)C(C)(C)C3C(OC3OC(CO)C(O)C(O)C3O)C[C@]12C (stereo partly drawn) [Rh1, ginsenoside Rh1] ; wanted: its Percentage (glucose transport, control = 100)
Solution: 62.20

Problem: Any idea what its Percentage (glucose transport, control = 100) is? The compound is CC(C)=CCC[C@](C)(O[C@@H]1O[C@H](CO)[C@@H](O)[C@H](O)[C@H]1O)[C@H]1CC[C@]2(C)[C@@H]1[C@H](O)C[C@@H]1[C@@]3(C)CC[C@H](O)C(C)(C)[C@@H]3[C@@H](O[C@@H]3O[C@H](CO)[C@@H](O)[C@H](O)[C@H]3O)C[C@]12C [Rg1, ginsenoside Rg1]
Solution: 51.88
